Provide the reported Ki of each item.
- targetSystem: Human recombinant cathepsin S (Homo sapiens (Human))
- Sequence (P25774 115-331): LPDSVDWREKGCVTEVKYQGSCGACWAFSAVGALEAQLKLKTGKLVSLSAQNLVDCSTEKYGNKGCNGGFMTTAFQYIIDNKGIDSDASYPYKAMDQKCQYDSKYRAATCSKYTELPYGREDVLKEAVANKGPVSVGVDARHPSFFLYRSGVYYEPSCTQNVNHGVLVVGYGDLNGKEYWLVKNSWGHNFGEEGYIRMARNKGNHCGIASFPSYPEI
- testDetails: In vitro cathepsin Ki inhibition measurements, cathepsin S
- Assay type: biochemical
- condition: read-out: In vitro Ki (nM) vs Cath S
Numbers only, in nM.

Look over these answered cases.
Measured Ki, CC1(C)CCC([C@H](NC(=O)c2cccc(-n3cnnn3)c2)C(=O)N2C[C@H](Cl)[C@H]3OCC(=O)[C@H]32)CC1 : 12

Ki reported for this molecule C[C@H]1CC[C@H]([C@H](NC(=O)c2ccccc2)C(=O)N2C[C@@H](Cl)[C@H]3OCC(=O)[C@H]32)CC1 : 75

Reported Ki for C[C@H]1CC[C@H]([C@H](NC(=O)c2cccc(-n3cnnn3)c2)C(=O)N2CC[C@H]3OCC(=O)[C@H]32)CC1 was 79

Form: molecule = C[C@H]1CC[C@H]([C@H](NC(=O)c2cccc(-n3ccnc3)c2)C(=O)N2C[C@H](Cl)[C@H]3OCC(=O)[C@H]32)CC1 ; Ki = 0.4

Kindly note the recorded Ki for C[C@H]1CC[C@H]([C@H](NC(=O)c2ccccc2)C(=O)N2C[C@H](Cl)[C@H]3OCC(=O)[C@H]32)CC1 , which is 5

// for each molecule in input: emit Ki
1. C[C@H]1CC[C@H]([C@H](NC(=O)c2ccccc2)C(=O)N2C[C@H](F)[C@H]3OCC(=O)[C@H]32)CC1
2. C[C@H]1CC[C@H]([C@H](NC(=O)c2cccc(-n3cnnn3)c2)C(=O)N2C[C@H](F)[C@H]3OCC(=O)[C@H]32)CC1
3. C[C@H]1CC[C@H]([C@H](NC(=O)c2cccc(-n3cnnn3)c2)C(=O)N2C[C@H](Cl)[C@H]3OCC(=O)[C@H]32)CC1
4. C[C@H]1CC[C@H]([C@H](NC(=O)c2cccc(-n3cnnn3)c2)C(=O)N2C[C@@H](Cl)[C@H]3OCC(=O)[C@H]32)CC1

## Result
1. 28
2. 24
3. 2.2
4. 55

Provide reported Ki for each item, in the same order as listed.
1. CC1CCC([C@H](NC(=O)c2ccccc2)C(=O)N2CC[C@H]3OCC(=O)[C@H]32)CC1 (some centres unmarked)
2. C[C@H]1CC[C@H]([C@H](NC(=O)c2cccc(-n3ccnc3)c2)C(=O)N2C[C@H](F)[C@H]3OCC(=O)[C@H]32)CC1

## Result
1. 72
2. 15

====

For each entry below, report its Ki value.
- targetSystem: Human recombinant cathepsin K (Homo sapiens (Human))
- Sequence (P43235 115-329): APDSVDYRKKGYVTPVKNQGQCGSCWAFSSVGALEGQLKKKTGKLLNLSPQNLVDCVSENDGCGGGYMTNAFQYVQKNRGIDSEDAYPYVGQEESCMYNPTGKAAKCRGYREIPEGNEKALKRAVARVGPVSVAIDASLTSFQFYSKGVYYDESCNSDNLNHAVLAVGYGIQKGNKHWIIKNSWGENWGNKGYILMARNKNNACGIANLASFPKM
- testDetails: In vitro cathepsin Ki inhibition measurements, cathepsin K
- Format: biochemical
- condition: read-out: In vitro Ki (nM) vs Cath K

Use these answered entries as a reference point.
Lookup result for O=C(N[C@@H](CC1CCCCC1)C(=O)N1CC[C@H]2OCC(=O)[C@H]21)c1ccccc1 [compound (38), reference compound] ; measured Ki: > 4000 nM

The compound listed as C[C@H]1CC[C@H]([C@H](NC(=O)c2cccc(-n3cnnn3)c2)C(=O)N2CC[C@H]3OCC(=O)[C@H]32)CC1 shows Ki equal to > 10000 nM

Data point: C[C@H]1CC[C@H]([C@H](NC(=O)c2ccccc2)C(=O)N2C[C@H](Cl)[C@H]3OCC(=O)[C@H]32)CC1 ; Ki = > 10000 nM

Below is a list of compounds. For each, state its recorded Ki.
1. CC1(C)CCC([C@H](NC(=O)c2cccc(-n3cnnn3)c2)C(=O)N2C[C@H](Cl)[C@H]3OCC(=O)[C@H]32)CC1
2. C[C@H]1CC[C@H]([C@H](NC(=O)c2cccc(-n3cnnn3)c2)C(=O)N2C[C@@H](Cl)[C@H]3OCC(=O)[C@H]32)CC1
3. C[C@H]1CC[C@H]([C@H](NC(=O)c2ccccc2)C(=O)N2C[C@@H](Cl)[C@H]3OCC(=O)[C@H]32)CC1

## Result
["> 10000 nM", "> 10000 nM", "> 10000 nM"]
